// provenance: the supplement of paper PMC10307832

system: NCI-H1651; experiment: relative viability (nuclei count vs DMSO), 5 days (fraction); higher = more cells survive; details: first compound 0.4 µM
ENDPOINT_NAME: relative viability
The reply should be a number, written without any unit.

Look over these answered cases.
COMPOUND	QUANTITATIVE_READOUT
Cc1sc2c(c1C)C(c1ccc(Cl)cc1)=N[C@@H](CC(=O)OC(C)(C)C)c1nnc(C)n1-2 [JQ1] + COc1cccc2cc(-c3nc([C@H]4CC[C@H](C(=O)O)CC4)n4ncnc(N)c34)[nH]c12 [OSI-027] (partner 0.5 µM)	0.591
Cc1sc2c(c1C)C(c1ccc(Cl)cc1)=N[C@@H](CC(=O)OC(C)(C)C)c1nnc(C)n1-2 [JQ1] + O=C(CCCCCCC(=O)Nc1ccccc1)NO [Vorinostat] (partner 1 µM)	0.445
Cc1sc2c(c1C)C(c1ccc(Cl)cc1)=N[C@@H](CC(=O)OC(C)(C)C)c1nnc(C)n1-2 [JQ1] + CS(=O)(=O)N1CCN(Cc2cc3nc(-c4cccc5[nH]ncc45)nc(N4CCOCC4)c3s2)CC1 [Pictilisib] (partner 1 µM)	0.335

Consider the record given below.
Checklist item: relative viability tested on NCI-H1651, entry Cc1sc2c(c1C)C(c1ccc(Cl)cc1)=N[C@@H](CC(=O)OC(C)(C)C)c1nnc(C)n1-2 [JQ1] + CC(=O)c1c(C)c2cnc(Nc3ccc(N4CCNCC4)cn3)nc2n(C2CCCC2)c1=O [Palbociclib] (partner 0.5 µM) , value?
0.403
